The measured values listed here are drawn from patent US4758555A.

assay: Subcutaneous Pentylenetetrazol (Metrazol) Seizure Threshold Test; assay type: in vivo, male Carworth Farms #1 mice or Sprague-Dawley rats; conditions: Table X; IP; challenge time 30 min
PROPERTY NAME: Lowest effective dose, Metrazol (Phase I)

Below, each entry is followed by its recorded Lowest effective dose, Metrazol (Phase I) result.
[[record]]
compound = "CCC1(c2ccccc2)C(=O)[N-]C(=O)NC1=O.CCC1(c2ccccc2)C(=O)[N-]C(=O)NC1=O.CCC1(c2ccccc2)C(=O)[N-]C(=O)NC1=O.CCC1(c2ccccc2)C(=O)[N-]C(=O)NC1=O.O.O.[Cu+2].[Na+].[Na+] [Na2 [Cu(II)(Phenobarbital)4](H2 O)2]"
experimental_result = "30 milligrams per kilogram of bod"

[[record]]
compound = "O.O.O.O=C1[N-]C(=O)C(c2ccccc2)(c2ccccc2)N1.O=C1[N-]C(=O)C(c2ccccc2)(c2ccccc2)N1.[Cu+2] [Cu(II)(Dilantin)2 (H2 O)3]"
experimental_result = "100 milligrams per kilogram of bod"

[[record]]
compound = "CCC1(c2ccccc2)C(=O)[N-]C(=O)NC1=O.CCC1(c2ccccc2)C(=O)[N-]C(=O)NC1=O.O.O.O.[Cu+2]"
experimental_result = "5 milligrams per kilogram of bod"

[[record]]
compound = "O=C1CN=C(c2ccccc2Cl)c2cc([N+](=O)[O-])ccc2N1.O=C1CN=C(c2ccccc2Cl)c2cc([N+](=O)[O-])ccc2N1.[Cl-].[Cl-].[Cu+2]"
experimental_result = "1 milligrams per kilogram of bod"


Field: next compound
**Q:** Hello, please tell me recorded Lowest effective dose, Metrazol (Phase I) for this one: O.O=C1Nc2ccc(Cl)cc2C(c2ccccc2Cl)=NC1O.O=C1Nc2ccc(Cl)cc2C(c2ccccc2Cl)=NC1O.[Cl-].[Cl-].[Cu+2] (centres unmarked)
**A:** I
